Recorded remaining at 10 min, 0.5 µM by entry
- Test method notes: Metabolic stability in mouse liver microsomes assessed as compound remaining at 0.5 uM measured after 10 mins
- Format: ADME, Microsome
- Assay context: read-out: Stability
A number alone suffices; assume %.

Would you please look over these solved cases?
The recorded remaining at 10 min, 0.5 µM for Cc1onc(-c2ccccc2)c1[C@@H]1C[C@@](C)(c2ccc(F)cc2F)N=C(N)S1 is 12

The recorded remaining at 10 min, 0.5 µM for Cc1onc(-c2cccnc2)c1[C@@H]1C[C@@](C)(c2ccc(F)cc2F)N=C(N)S1 is 6

More entries:
The recorded remaining at 10 min, 0.5 µM for Cc1nocc1[C@@H]1C[C@@](C)(c2ccc(F)cc2F)N=C(N)S1 is 80

The recorded remaining at 10 min, 0.5 µM for Cn1nccc1[C@@H]1C[C@@](C)(c2ccc(F)cc2F)N=C(N)S1 is 72

The recorded remaining at 10 min, 0.5 µM for CCc1noc(C)c1[C@@H]1C[C@@](C)(c2ccc(F)cc2F)N=C(N)S1 is 41

Attribution: ChEMBL document CHEMBL4428078
